Tested on: T47D breast tumor cell line
test method notes: CellTiter-Glo cell growth inhibition assay, T47D
Type: cell-based
reported conditions: Homo sapiens, 72 h, luminal, HER normal, 3 days
Protocol: Breast tumor cell lines, BT-474, SK-Br-3, MDA-MB-453, MDA-MB-231 and T47D and head and neck squamous cell carcinoma line, SCC15 were purchased from the American Type Culture Collection. […] Cell growth inhibition was determined via CellTiter-Glo cell viability assays. […] ATP levels were determined by adding Cell Titer Glo® (Promega), incubating for 20 minutes then a luminescent signal was read on the SpectraMax M5 plate with a 0.5 sec integration time. […]
readout name: IC50 (µM)
Answers are plain numbers, in µM.

Exercise: Quick check: IC50 of Cc1nc(Nc2ncc(C(=O)Nc3c(C)cccc3Cl)s2)cc(N2CCN(CCO)CC2)n1 [Dasatinib, monohydrate] ?
Key: 8.96

###

System: LL1-BT-474-J4 (J4) breast cell clone
test method notes: CellTiter-Glo cell growth inhibition assay, LL1-BT-474-J4
Type: cell-based
reported conditions: 72 h
readout name: pIC50
Numbers only, as −log10 of the molar value.

Exercise: Quick check: pIC50 of CS(=O)(=O)CCNCc1ccc(-c2ccc3ncnc(Nc4ccc(OCc5cccc(F)c5)c(Cl)c4)c3c2)o1 [Lapatinib] ?
Key: 4.96
